Test system: OVCAR-5
Test: NCI tumour cell line growth inhibition, 48 h
Activity calls are given as the source filed them. No stated cut-off is given here; in the data, active = GI50 up to about 1.1 µM and inactive = higher.
assay.endpoint: GI50

# molecule OC(COc1ccccc1)CN1CCCCC1 (stereo unspecified) ; its GI50 = > 100 µM (inactive)

The recorded GI50 for `Cc1cc(C)n2c(-c3ccccc3)c(C)cc2n1` is > 100 µM (inactive)

Summary for this molecule, `CO/N=C(/C(=O)Nc1c[n+](CC(=O)[O-])cs1)c1csc(N)n1` : GI50 is > 100 µM (inactive)

Record NCCSC1(O)C(=O)c2ccccc2-c2ccccc21 (stereo unspecified) . Reported GI50: 1.53 µM (inactive)

Lab book: GI50 of `Cc1nn(-c2ccccc2)c(-c2ccccc2[N+](=O)[O-])c1CC#N` noted as > 100 µM (inactive)

The value of GI50 measured for the molecule `Cc1cc(NS(=O)(=O)c2ccc(NC(=O)c3cccc4c(Nc5ccc(S(N)(=O)=O)cc5)c5ccccc5nc34)cc2)no1` turned out to be > 100 µM (inactive)

For this molecule ( `CCCCCCOc1ccc(NC2=C(Cl)C(=O)c3cccnc3C2=O)cc1` ), measured GI50 is 2.4 µM (inactive)

Reported GI50 of `[O-][S+](c1ccc(O)cc1)c1ccc(O)cc1` : > 100 µM (inactive)

The molecule identified as `CS(=O)(=O)C1(Br)S(=O)(=O)OCCOS1(=O)=O` registered its GI50 at > 100 µM (inactive)

Memo: `Cc1ccc2nc(/C=N/c3ccc(Cl)cc3)cc(C)c2c1` , reported GI50: 3.67 µM (inactive)

Memo: `Clc1ccc(Nc2nnc(CNc3ccc(-c4nnc(Nc5ccc(Cl)cc5)s4)cc3)s2)cc1` , reported GI50: 23.6 µM (inactive)

====

System: DMS-114
Experiment: NCI tumour cell line growth inhibition, 48 h
Calls of active or inactive are those of the source. Cut-off read from the data, not from the text of the source: active = GI50 up to about 1.1 µM and inactive = higher.
Permitted responses: yes (1) for active, no (0) for inactive

Look up the recorded call for `COCCOCOc1ccc(OCc2ccccc2)cc1` in this test.
no (0)

Any idea what this test logged for CC(=O)O[C@@]12CO[C@@H]1C[C@H](O)[C@@]1(C)C(=O)[C@H](O)C3=C(C)[C@@H](OC(=O)[C@H](O)[C@@H](NC(=O)OC(C)(C)C)c4ccccc4)C[C@@](O)([C@@H](OC(=O)c4ccccc4)[C@H]21)C3(C)C [DOCETAXEL] ?
yes (1)

Fill in: this test's call for `Oc1cc(-c2cccc(Cl)c2)nc2cc3c(cc12)OCO3` is ___
yes (1)

How did this test come out for `CCCCCCCCCC(=O)N[C@H]1CCc2cc(OC)c(OC)c(OC)c2-c2ccc(SC)c(=O)cc21` ?
yes (1)

Please state the recorded outcome for this molecule: `CCCCCC(=O)N[C@H]1CCc2cc(O)c(O)c(O)c2-c2ccc(SC)c(=O)cc21`
no (0)

Recorded test call requested for `CC1=C(C(=O)Nc2ccccc2)C(c2ccc(N(C)C)cc2)C(C(=O)Nc2ccccc2)=C(C)N1`
yes (1)

Called result for `Cc1nn(-c2ccccc2)c(-c2ccccc2[N+](=O)[O-])c1CC#N`
no (0)

Per the assay record, what outcome was assigned to `CCCCCCCCCCSS(=O)(=O)c1ccc(C)cc1` ?
no (0)

Just curious, what result did `O=C(Nc1cccc(Cl)c1)c1cc2cc(/N=N/c3ccc(Br)cc3)ccc2oc1=O` get here?
no (0)

====

Tested on: RPMI-8226
Assay: NCI tumour cell line growth inhibition, 48 h
Calls of active or inactive are those of the source. Cut-off read from the data, not from the text of the source: active = GI50 up to about 1.1 µM and inactive = higher. Residues, ends and D or L forms follow the SMILES beside them. *: point of attachment. Bn = c1ccc(C*)cc1
Returns: one label drawn from active, inactive

Name the outcome recorded for `N#Cc1c(SCc2ccccc2)nc(-c2ccccc2)[nH]c1=S` in the assay.
inactive

Name the outcome recorded for C=C1CC(CCCl)(c2ccccc2)OC1=O (stereo not given) in the assay.
inactive

Which result was noted for this compound in the test: `CC(=O)c1ccc(N2CCN(C3=CC(=O)c4c(O)ccc(O)c4C3=O)CC2)cc1`
inactive

Would you mind telling me which call this test gave OC1CN(OC/C=C/c2ccccc2)CC(O)C1O (stereo not given) ?
inactive

Recorded test outcome, item `CCCCCCCCCC(=O)N[C@H]1CCc2cc(OC)c(OC)c(OC)c2-c2ccc(SC)c(=O)cc21`
active

Give the logged outcome of this assay for the following compound: `COC(=O)c1cc(=O)nc2sc3cccc(C)c3n12`
inactive

Hi, sorry to bother you, what did the test record for `COc1cc(N(CCC#N)CCC#N)ccc1C(=N/NC(=O)c1cc(Br)ccc1O)/N=N/c1ccc(C)cc1` ?
inactive

Please state the recorded outcome for this compound: COC(=O)C(CC(C)C)NC(=O)C(N)Cc1ccc(OCc2ccccc2)cc1 (stereo not given) (H-Tyr(Bn)-Leu-OMe; configuration not given here)
inactive

Outcome logged for `Cc1nc(N)nc(S)c1CCCNc1ccccc1` in this assay:
inactive

What outcome does the record of this test show for c1ccc2nc(CCC3CCCCN3)ccc2c1 (stereo not given) ?
inactive

====

Tested on: MDA-MB-231
Assay: NCI tumour cell line growth inhibition, 48 h
Calls of active or inactive are those of the source. No stated cut-off is given here; in the data, active = GI50 up to about 1.1 µM and inactive = higher.
Pick from active, inactive when you respond.

What was the test verdict on CC(=O)NNC1=NN(C(C)=O)C2(S1)C(=O)Nc1ccccc12 (stereo unspecified) ?
inactive

Fill in: this test's call for Cc1ccc2c(c1)C(O)(c1ccccc1)CCS2 (stereo unspecified) is ___
inactive

Recorded call for `CCCCn1c2c(n(CCCC)c1=S)-c1c(n(CCCC)c(=S)n1CCCC)SSc1c(n(CCCC)c(=S)n1CCCC)-c1c(n(CCCC)c(=S)n1CCCC)SSc1c(n(CCCC)c(=S)n1CCCC)-c1c(n(CCCC)c(=S)n1CCCC)SS2` ?
inactive

How was c1ccc2nc(CCC3CCCCN3)ccc2c1 (stereo unspecified) classified in this test?
inactive

Any idea what this test logged for `Cc1ccc(S(=O)(=O)Nn2c(S)c(C#N)c(-c3ccc(N(C)C)cc3)c(C#N)c2=O)cc1` ?
inactive

So what was the verdict on C=C1C(=O)OC2C(C)C3C=CC(=O)[C@@]3(C)C(OC(=O)/C(C)=C/C)C1[C@@H]2OC(C)=O (stereo partly specified) in this test?
active

Kindly provide the recorded test outcome for the following compound: `COc1cc(C#CC(=O)OC/C=C/c2ccc3c(c2)OCO3)cc(OC)c1OC`
inactive

In this assay, the call recorded for `CNC(=O)CCNC(=O)CCC(=O)OC` was what?
inactive

Tell me the recorded outcome of this test for CO[C@H]1O[C@@H]2OC3(C)CCC4[C@H](C)CCC([C@H]1C)[C@]42OO3 (stereo partly specified) .
inactive

Could you check what this test reported for CCOC(=O)C(C(=O)OCC)C1C=CCC2c3ccccc3COCC21 (stereo unspecified) ?
inactive

Which result was noted for this compound in the test: `CCSc1nnc(Sc2c3ccccc3nc3ccccc23)s1`
inactive

Which outcome was assigned to c1ccc(C2SCC3=Nc4ccccc4CN32)cc1 (stereo unspecified) in this test?
inactive

Outcome? `O=C1c2ccccc2C(=O)c2c1nc1ccccc1c2-c1cncc(-c2c3c(nc4ccccc24)C(=O)c2ccccc2C3=O)c1`
inactive

For this compound, state the assay outcome: `NC(=O)Oc1ccccc1`
inactive

Can you look up the reported call for `Nc1nc(N)c2c(-c3ccccc3)ccnc2n1` for me?
inactive

Look up the recorded call for `COC(=O)c1cc(=O)nc2sc3cccc(C)c3n12` in this test.
inactive

What classification did `c1ccc(/C(=N/Nc2cnccn2)c2ncccn2)cc1` end up with in this test?
inactive

Query: recorded result category for `COc1ccc2c(c1)c1c(n2CCN(C)C)-c2cccc(OC)c2CC1` in this test
inactive

For this compound, state the assay outcome: N#CC1=C(N)N(c2ccccc2)C(c2ccco2)C1(C#N)C#N (stereo unspecified)
inactive

Outcome? `O=C(O)Cn1nnc2c(=O)[nH][nH]c(=O)c21`
inactive

Please state the recorded outcome for this compound: CCOC(=O)C1=C(C)N(Cc2ccccc2)C2(O)C=CC(O)=C3C(=O)c4ccccc4C(=O)C312 (stereo unspecified)
inactive

====

System: RXF 393
Assay: NCI tumour cell line growth inhibition, 48 h
Counter-ions that a name gives are not always drawn. Active and inactive are the calls of the source. No stated cut-off is given here; in the data, active = GI50 up to about 1.1 µM and inactive = higher.
Exercise: state measured GI50 for each of the molecules provided.

Field GI50 (entry `NCC1CCCCC1.O=C(O)NCC1CCCCC1` ) reads 19.1 µM (inactive)

Given item `O=C(NO)c1coc2ccccc2c1=O` , the value recorded as its GI50 is 72.9 µM (inactive)

Measured GI50, CS(=O)(=O)C(C#N)c1nc2ccccc2nc1Cl (stereo unspecified) : > 100 µM (inactive)

GI50 for C=CCCCC(C#N)(c1ccccc1)N1CCCC1 (stereo unspecified) is > 100 µM (inactive)

Field GI50 (entry `N#CC(C#N)=C1NC(=O)CC(=O)N1` ) reads > 100 µM (inactive)

For CNc1ncnc2c1nc(NC1CCCC1)n2C1OC(CO)C(O)C1O (stereo unspecified) the molecule record lists GI50 as > 100 µM (inactive)

For this molecule ( `CCCCCCCCCCSS(=O)(=O)c1ccc(C)cc1` ), measured GI50 is 15.8 µM (inactive)

Record `C=CCn1c(-c2ccc(-c3cs/c(=N\N=O)n3CC=C)cc2)cs/c1=N\N=O` . Reported GI50: 19.1 µM (inactive)

The molecule `N#Cc1c(SCc2ccccc2)nc(-c2ccccc2)[nH]c1=S` showed GI50 equal to 19.2 µM (inactive)

Input `CC(C)NC(=O)OCc1c(COC(=O)NC(C)C)n(C)c2c1ccc1cc(Cl)c(Cl)cc12` . Output GI50: 12.2 µM (inactive)

GI50 for Cc1cc2c(cc1C)C(=O)C1(C2)Cc2c(ccc(C)c2C)C1=O (stereo unspecified) is 53.8 µM (inactive)

The recorded GI50 for `CC(=O)n1c(=O)c2cc3c(=O)n(-c4cccc(C#N)c4)c(=O)c3cc2c1=O` is > 100 µM (inactive)

Entry `CSc1nc(N)c2c(-c3ccccc3)c3c(nc2n1)CCCC3` , GI50 reported as 29.7 µM (inactive)

Summary for this molecule, `CCN(C(=S)N[C@@H](Cc1ccccc1)C(=O)N[C@@H](CC(C)C)C(=O)OC)c1ccccc1` : GI50 is > 100 µM (inactive)

Data point: CN[C@@H]1[C@H](O)[C@H](NC)[C@H]2O[C@@]3(O)C(=O)C[C@@H](C)O[C@H]3O[C@@H]2[C@H]1O [SPECTINOMYCIN SULFATE] ; GI50 = > 100 µM (inactive)

GI50 in this record for CCOC(=O)C1=C(C)N(Cc2ccccc2)C2(O)C=CC(O)=C3C(=O)c4ccccc4C(=O)C312 (stereo unspecified) : 3.37 µM (inactive)

Notebook: `CCCCCCCCCC(=O)N[C@H]1CCc2cc(OC)c(OC)c(OC)c2-c2ccc(SC)c(=O)cc21` , GI50 read as 0.0224 µM (active)

Looking up COc1ccc(NC(=O)C2C(=O)N(c3ccc(OC)cc3)C(=O)/C2=N/O)cc1 (stereo unspecified) , I see its GI50 listed as 15.3 µM (inactive)

The measured GI50 associated with CCC(CO)COC(=O)/C=C/C(=O)OCC(CC)CO (stereo unspecified) reads > 65.3 µM (inactive)

Lab note: measured GI50 of `CCCCCC(=O)N[C@H]1CCc2cc(O)c(O)c(O)c2-c2ccc(SC)c(=O)cc21` was 38.9 µM (inactive)

Form: molecule = OC(CCN1CCN(CCOC(c2ccc(F)cc2)c2ccc(F)cc2)CC1)c1ccccc1 (stereo unspecified) ; GI50 = 11.1 µM (inactive)
